- Tested on: LXFL 529 NSCLC
- assayDetails: NCI tumour cell line growth inhibition, 48 h
// values below are reported TGI

Recorded TGI, per entry:
INSERT INTO results (compound, reportedendpoint, reading) VALUES
  ('CCCCCCCCCc1cc(=O)c2ccc(O)cc2o1', 'TGI', '> 100 µM'),
  ('CSc1nc2c(nc(N)n2C2OCC(O)C(O)C2O)c(=O)n1C (configuration not stated)', 'TGI', '> 100 µM'),
  ('CC1C(=O)C(C)C(c2ccccc2)N(N=O)C1c1ccccc1 (configuration not stated)', 'TGI', '> 1000 µM'),
  ('COc1cc([C@@H]2c3cc4c(cc3[C@@H](NC(=O)c3ccccc3)C3COC(=O)[C@@H]32)OCO4)cc(OC)c1O (some centres not stated)', 'TGI', '> 100 µM'),
  ('CCCCCCCCCCCCCC(=O)CBr', 'TGI', '9.13 µM');

**Q:** Fill in the blank: the reported TGI of COc1ccc(C(C#N)NNc2nc(C)cc(=O)[nH]2)cc1OC (configuration not stated) is ____.
**A:** > 100 µM

**Q:** Ok, now "NC(=O)N1N=C2c3ccccc3SC[C@H]2[C@@H]1c1ccccc1"
**A:** 94.2 µM
